- target.system: T1, Full-length isoform 165 of human VEGF-A (Homo sapiens, VEGF-A isoform 165, UniProt P15692-4)
- T1 construct: VEGF-A isoform 165, human; Immobilised by amine coupling for SPR; Made in HEK cells, so probably the secreted 165-residue form without signal peptide (surmise); source: HEK, recombinant, purified
- T1 sequence (P15692 other isoform, or with tags, fused parts or gaps): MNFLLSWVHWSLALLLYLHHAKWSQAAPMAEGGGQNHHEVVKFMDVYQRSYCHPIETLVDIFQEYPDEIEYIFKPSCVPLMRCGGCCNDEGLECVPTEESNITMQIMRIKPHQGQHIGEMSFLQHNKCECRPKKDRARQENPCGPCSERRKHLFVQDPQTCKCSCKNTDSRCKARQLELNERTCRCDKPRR
- test.summary: SPR; Biacore T200, 25 °C, PBS with 0.05% Tween 20 and 3.4 mM EDTA; VEGF-A amine-coupled to a CM-5 chip; Fab injected in single cycle kinetics with five increasing concentrations; double referenced; fit to a 1:1 Langmuir binding model
- condition.notes: both partners purified
measured.metric: Kd

Exam item: Given the entry bH1 Fab H3 variant 16_0102 (Fab, V domains shown, source: CHO-3E7, co-transfected, purified from supernatant (HisTrap IMAC, SEC Superdex-200)) VH: EVQLVESGGGLVQPGGSLRLSCAASGFNIKDTYIHWVRQAPGKGLEWVARIYPTNGYTRYADSVKGRFTISADTSKNTAYLQMNSLRAEDTAVYYCAKGWEGTTVTLTPVDYWGQGTLVTVSS VL: DIQMTQSPSSLSASVGDRVTITCRASQDIPRSISGYVAWYQQKPGKAPKLLIYWGSYLYSGVPSRFSGSGSGTDFTLTISSLQPEDFATYYCQQHYTTPPTFGQGTKVEIK , report its measured Kd.
Marked response: 50 µM
